TESTED_SYSTEM: T1, human amylin-3 (a) receptor (human, UniProt P30988 25-474; O60896 24-148)
T1 sequence (looked up) 1: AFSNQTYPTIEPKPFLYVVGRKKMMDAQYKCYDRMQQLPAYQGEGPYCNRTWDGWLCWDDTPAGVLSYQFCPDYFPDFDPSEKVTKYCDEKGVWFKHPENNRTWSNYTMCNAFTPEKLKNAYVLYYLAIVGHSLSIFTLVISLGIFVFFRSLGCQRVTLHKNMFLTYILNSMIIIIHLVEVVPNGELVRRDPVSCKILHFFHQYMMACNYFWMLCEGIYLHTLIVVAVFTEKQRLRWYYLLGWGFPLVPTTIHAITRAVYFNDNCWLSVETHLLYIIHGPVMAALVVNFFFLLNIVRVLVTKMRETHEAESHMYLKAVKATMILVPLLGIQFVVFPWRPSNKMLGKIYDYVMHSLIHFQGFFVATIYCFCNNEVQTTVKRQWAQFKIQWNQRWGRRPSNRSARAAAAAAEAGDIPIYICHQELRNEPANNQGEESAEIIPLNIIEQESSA
T1 sequence (looked up) 2: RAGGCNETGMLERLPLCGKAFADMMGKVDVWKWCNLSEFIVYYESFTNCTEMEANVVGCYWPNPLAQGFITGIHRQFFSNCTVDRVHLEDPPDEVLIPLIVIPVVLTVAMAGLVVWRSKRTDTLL
METHOD_SUMMARY: cell-based or functional assay
Starred links: 1 amine or outer side, 2 acyl side, 3 side chain; linkers in the order of their positions; H or OH if unused. Non-standard residues stand in square brackets, D forms with d. Groups on a side chain read outwards from the residue. *: point of attachment. C20 diacid = O=C(O)CCCCCCCCCCCCCCCCCCC(=O)*; C18 diacid = O=C(O)CCCCCCCCCCCCCCCCC(=O)*; C16 diacid = O=C(O)CCCCCCCCCCCCCCC(=O)*; γGlu = O=C(O)[C@H](CCC(=O)[*:2])N[*:1]; AEEA = NCCOCCOCC(=O)O; Aib = CC(C)(N)C(=O)O
// values below are reported Human AmyR3 potency [EC50 (pM)]

Use the examples below as a reference point.
| BINDER | MEASUREMENT_TYPE | VAL |
| --- | --- | --- |
| Compound 0202 (peptide) peptide: H[Aib]EGTFTSDVSSYLEGQAAK([AEEA-AEEA-γGlu-C20 diacid])EFIAWLVRGRGQEPGQAPEASELSTAALGRLSAELHELATLPRTETGSGSP-NH2 | Human AmyR3 potency [EC50 (pM)] | 28.4 pM |
| Compound 0271 (peptide) peptide: HWEGTFTSDVSSYLEEK([AEEA-AEEA-γGlu-C18 diacid])AAREFIEWLVRGRGEASELSTAALGRLSAELHELATLPRTETGSGSP-NH2 | Human AmyR3 potency [EC50 (pM)] | 15.2 pM |

IN: // query Human AmyR3 potency [EC50 (pM)] value for entry Compound 0092 (peptide) peptide: H[Aib]EGTFTSDVSSYLEGQAAK([AEEA-AEEA-γGlu-C18 diacid])EFIAWLVRGRGGGGGGGGGGGGGEASELSTAALGRLSAELHELATLPRTETGSGSP-NH2
OUT: 10.9 pM

IN: // query Human AmyR3 potency [EC50 (pM)] value for entry Compound 0106 (peptide) peptide: H[Aib]EGTFTSDVSSYLEEQAARK([Ado-Ado-γGlu-C18 diacid])FIEWLVRGK([Ado-Ado-γGlu-C18 diacid])GEGQEPGGASELSTAALGRLSAELHELATLPRTETGSGSP-NH2
OUT: 28.4 pM

IN: // query Human AmyR3 potency [EC50 (pM)] value for entry Compound 0042 (peptide) peptide: H[Aib]EGTFTSDVSSYLEGQAAKEFIAWLVRGRK([AEEA-AEEA-γGlu-C18 diacid])GGEASELSTAALGRLSAELHELATLPRTETGSGSP-NH2
OUT: 10.8 pM

IN: // query Human AmyR3 potency [EC50 (pM)] value for entry Compound 0077 (peptide) peptide: H[Aib]EGTFTSDVSSYLEEQAARK([AEEA-AEEA-γGlu-C16 diacid])FIAWLVK([AEEA-AEEA-γGlu-C16 diacid])GRGGGEASELSTAALGRLSAELHELATLPRTETGSGSP-NH2
OUT: 25.7 pM
